- Substrate: BHET
- experimental-context: 120 h
measured-attribute: plate clearing

protein	result
unnamed (protein) MISNRRAPARRAGAALTALALAVVLAACDIRGPAPTEQILEAPSGPFAVGSVAVPSSAGFGGGTIYYPSEAAGPFGIIAVTPGFLGNQTSIGTWGPRLASHGFVTITINTTGGFILPDQRSAEQRQALTYVVNQGNRSSSPIFGKVDGDRKGVAGHSMGGGGTLVSAREDPTIRAAVPFAPWYTSTNFSNVTVPTLIVACQSDGVAPVASHASPFYNSIPATTDKSYISVAGADHFCANSPTGGANDVGKYVVAFFKRFVDGDTRYDPWVCG	not clears the plate
unnamed (protein) MSCRQEPLGDKMRFFSQKCLATVAAVVATLASGAALAQTSNPYQRGPNPTTSSLEASRGSFAISQFRVSRPSGFGGGTVYYPTNAGGTVGAIAVVPGFLARQSTINWWGPRLASHGFVVITIDTNSTSDQPASRATQLMAALRQVVTLNGTRSSPIYNKVDTSRLAVMGWSMGGGGTLIAARDNPTLKAAVPFAPYNTGTNFSASAVPTLIIGCESDTVAPVGQHAEAFYTSMTRPEKAYLEINGGSHTCATSGNRNQAMIGKYGVSWMKRFVDNDTRFSDFLCGAPHAADLRNTSVISEYRETCPY	not clears the plate

Hey, just so you know, these numbers are from the PETadex activity labels.
